Assay: HT29 colon tumor cell growth inhibition, primary screen, imaging, high content imaging, 24 h, CellTiter-Glo (AID 770);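 on condensed nuclei: share of cells whose nuclear area falls below control median minus 1.5 SD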
Conditions: HT29 cell number by imaging, measured here: percent cells with condensed nuclei, at 10 µM, stronger effect = higher value
Among all 3,300 compounds or so, fewer than 10 were called active. The list is a sample of the results.
Exercise: for every item that follows, state its recorded condensed nuclei.
Give the value, in units of %, as a plain number.

INPUT: Field request: condensed nuclei | item: Cc1ccc(CNc2oc(COc3ccccc3Cl)nc2C#N)cc1
OUTPUT: 4.34

INPUT: Another molecule to check: CCOc1nc(SCCOc2ccc(C)cc2)nc(N(C)C)n1
OUTPUT: 2.83

INPUT: Another molecule to check: COc1ccc(C=NCCC2(O)CC(C)N(C)CC2C)cc1 (stereo unspecified)
OUTPUT: 3.27

INPUT: Another molecule to check: Cc1ccc(Oc2nc3c(c(=O)n(Cc4ccccc4F)c(=O)n3C)n2C)cc1
OUTPUT: 1.09

INPUT: Another molecule to check: Cc1cc(N2C(=O)C(=O)/C(=C(/O)c3ccccc3)C2c2cccs2)no1 (stereo unspecified)
OUTPUT: 2.92

INPUT: Another molecule to check: CCCCCCOc1ccc(C(=O)n2cnc(N)n2)cc1
OUTPUT: 1.48

----------
Assay: HT29 colon tumor cell growth inhibition, primary screen, imaging, high content imaging, 24 h, CellTiter-Glo (AID 770)
Settings: HT29 cell number by imaging, at 10 µM, stronger effect = higher value
Fewer than 10 of roughly 3,300 compounds were called active. Only a sample is shown.
Exercise: for every item that follows, state its recorded growth inhibition.
Give the value, in units of %, as a plain number.

INPUT: Field request: growth inhibition | item: OCCN1CCN(CCCN2c3ccccc3Sc3ccc(C(F)(F)F)cc32)CC1
OUTPUT: 89

INPUT: Another compound to check: CC(C)CSc1nc(N2CCOCC2)c2c(c1C#N)CC(C)(C)SC2
OUTPUT: -12.2

INPUT: Another compound to check: N#Cc1c(NCCN)nc(NCc2ccccc2)c2c1CCN(Cc1ccccc1)C2
OUTPUT: 48.7

INPUT: Another compound to check: CCOc1nc(SCCOc2ccc(C)cc2)nc(N(C)C)n1
OUTPUT: -2.97

INPUT: Another compound to check: COc1cc(-c2cc(C(F)(F)F)n3ncc(C(=O)O)c3n2)cc(OC)c1OC
OUTPUT: -25.6

INPUT: Another compound to check: COc1ccc2c(c1OC)C(=O)N1c3ccccc3SC21 (configuration not stated)
OUTPUT: -18.9

INPUT: Another compound to check: CCn1c(-c2ccco2)n[nH]c1=S
OUTPUT: 2.65

INPUT: Another compound to check: Cn1c(SCC(=O)N2CCOCC2)nnc1-c1ccc(Cl)cc1Cl
OUTPUT: 30.4

INPUT: Another compound to check: COc1ccc(C=NCCC2(O)CC(C)N(C)CC2C)cc1 (configuration not stated)
OUTPUT: 22.1

INPUT: Another compound to check: CN1CCN(CCCN2c3ccccc3Sc3ccc(Cl)cc32)CC1
OUTPUT: -25.4

INPUT: Another compound to check: CCSc1nnc(NC(=O)C(CC)(C(F)(F)F)C(F)(F)F)s1
OUTPUT: 3.79

INPUT: Another compound to check: CSc1nc(N2CCCC2)c2c(c1C#N)CC(C)(C)OC2
OUTPUT: -22.4
